Taken from patent US6583108B1.

testSystem: bovine pancreatic kallikrein (bovine)
testSummary: enzyme inhibition kinetics; first preparation of bikunin (7-64)
measuredParameter: Ki (nM)
Answer format: numeric, nM implied, no suffix.

// synthetic placental bikunin (7-64) (other) IHDFCLVSKVVGRCRASMPRWWYNVTDGSCQLFVYGGCDGNSNNYLTKEECLKKCATV : Ki value = 0.4
